# Tested on: HepG2 cells
Would you mind telling me the reported CC50 of each entry?
Numbers only, in nM.

Guide cases for CC50, answers given:
COc1ccc(C)cc1NC(=O)Nc1nc2ccc(Nc3ncnc4cc(OCCCN5CCN(C)CC5)c(OC)cc34)cc2s1 [Compound 4SC-203]    4690
NC(=O)[C@@H](CC1CC1)[C@@H](CCC(F)(F)F)C(=O)N[C@H]1N=C(c2ccccc2)c2cccc(F)c2NC1=O [BMS-983970]    59
CCNCc1cncc(-c2ccc3[nH]nc(-c4nc5c(F)cc(F)cc5[nH]4)c3c2)c1C [AG-024322]    112
Cn1/c(=N\C#N)n(-c2ccc(C(C)(C)C#N)nc2)c2c3cc(-c4cnc(N)c(C(F)(F)F)c4)ccc3ncc21 [Panulisib]    10

Ask | Give the measured CC50 of CCN(CC)CCN1C(=O)c2c(c3c4cccc(Cl)c4n([C@@H]4O[C@H](CO)[C@@H](OC)[C@H](O)[C@H]4O)c3c3[nH]c4c(Cl)cccc4c23)C1=O [Becatecarin] .
Reply | 158
